Experiment: AUC (0 to 8 hrs) in rat at 10 mg/kg, iv
Type: ADME, organism-based
Set-up: time < 8 hr, dose 10 mg/kg, route intravenous
Details: plasma
Endpoint name: AUC(0-t) at 8 h (ng·h/mL)
Reply with just the number (in ng·h/mL).

Lookup: Sample `Cc1c(-c2ccc(C[C@H](NC(=O)c3c(F)cccc3F)C(=O)O)cc2)c(=O)n(C)c(=O)n1C` — what was its AUC(0-t) at 8 h?
Found: 41500

###

Biological target: Integrin alpha-4/beta-1 (Homo sapiens, UniProt P05556+P13612)
Sequence (P05556 whole entry): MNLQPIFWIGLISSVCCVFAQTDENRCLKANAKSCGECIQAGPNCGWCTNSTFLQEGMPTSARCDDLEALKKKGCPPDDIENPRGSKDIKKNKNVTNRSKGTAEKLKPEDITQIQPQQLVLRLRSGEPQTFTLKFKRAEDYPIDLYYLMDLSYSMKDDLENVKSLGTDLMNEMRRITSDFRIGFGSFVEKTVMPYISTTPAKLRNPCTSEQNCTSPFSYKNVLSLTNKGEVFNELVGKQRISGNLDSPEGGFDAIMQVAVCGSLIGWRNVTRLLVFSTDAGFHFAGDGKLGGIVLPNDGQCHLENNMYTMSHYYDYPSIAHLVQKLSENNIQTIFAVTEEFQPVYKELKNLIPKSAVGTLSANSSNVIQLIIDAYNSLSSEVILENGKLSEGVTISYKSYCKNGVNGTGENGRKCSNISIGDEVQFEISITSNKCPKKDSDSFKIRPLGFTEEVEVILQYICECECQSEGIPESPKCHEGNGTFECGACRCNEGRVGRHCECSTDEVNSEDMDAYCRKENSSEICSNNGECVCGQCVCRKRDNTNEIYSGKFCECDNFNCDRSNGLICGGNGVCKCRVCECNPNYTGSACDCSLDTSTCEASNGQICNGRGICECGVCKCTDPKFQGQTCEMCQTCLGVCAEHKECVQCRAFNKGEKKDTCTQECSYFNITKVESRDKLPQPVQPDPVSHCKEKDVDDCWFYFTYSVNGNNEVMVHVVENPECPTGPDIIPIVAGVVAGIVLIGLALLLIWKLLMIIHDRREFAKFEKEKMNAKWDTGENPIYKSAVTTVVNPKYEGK
Sequence (P13612 whole entry): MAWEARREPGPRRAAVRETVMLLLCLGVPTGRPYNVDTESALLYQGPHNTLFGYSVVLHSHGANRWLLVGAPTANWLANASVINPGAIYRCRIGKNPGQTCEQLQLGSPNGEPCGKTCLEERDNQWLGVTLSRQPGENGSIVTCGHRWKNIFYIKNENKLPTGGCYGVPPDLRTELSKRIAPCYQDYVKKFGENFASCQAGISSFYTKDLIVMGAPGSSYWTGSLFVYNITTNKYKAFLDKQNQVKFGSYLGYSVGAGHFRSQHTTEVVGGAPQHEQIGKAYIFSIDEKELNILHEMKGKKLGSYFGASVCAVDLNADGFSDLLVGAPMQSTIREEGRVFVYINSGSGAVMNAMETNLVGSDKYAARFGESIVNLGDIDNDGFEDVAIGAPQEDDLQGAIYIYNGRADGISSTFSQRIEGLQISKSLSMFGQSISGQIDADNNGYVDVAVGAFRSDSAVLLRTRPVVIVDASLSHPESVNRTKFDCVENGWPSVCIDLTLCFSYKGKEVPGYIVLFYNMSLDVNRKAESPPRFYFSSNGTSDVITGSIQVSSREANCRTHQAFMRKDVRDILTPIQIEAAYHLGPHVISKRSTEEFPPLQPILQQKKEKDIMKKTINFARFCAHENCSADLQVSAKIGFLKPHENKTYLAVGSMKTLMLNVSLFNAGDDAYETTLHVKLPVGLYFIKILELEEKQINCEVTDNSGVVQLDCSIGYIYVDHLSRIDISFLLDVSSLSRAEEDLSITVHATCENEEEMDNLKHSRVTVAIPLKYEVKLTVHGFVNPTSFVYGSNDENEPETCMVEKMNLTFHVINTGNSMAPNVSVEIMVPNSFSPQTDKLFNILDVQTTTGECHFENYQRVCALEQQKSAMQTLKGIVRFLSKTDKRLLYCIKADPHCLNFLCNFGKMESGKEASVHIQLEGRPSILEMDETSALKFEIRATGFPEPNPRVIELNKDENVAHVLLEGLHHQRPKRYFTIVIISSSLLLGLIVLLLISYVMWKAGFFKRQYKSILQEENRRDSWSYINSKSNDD
Experiment: Inhibition of human VCAM1 binding to integrin alpha4beta1 receptor in human Ramos cells labeled with Calcein AM relative to (S)-2-(2-chloro-6-methylbenzamido)-3-(4-(2,6-dichlorobenzamido)phenyl)propanoic acid
Type: cell-based
The label TRUE is reserved for Ratio IC50 strictly under 0.3; FALSE covers values equal to or above it.

Lookup: Criterion: Ratio IC50 strictly below 0.3. Is it met by `Cc1cc(C[C@H](NC(=O)c2c(Cl)cccc2Cl)C(=O)O)ccc1-c1cn(C)c(=O)n(C)c1=O` ?
Found: FALSE

Lookup: Criterion: Ratio IC50 strictly below 0.3. Is it met by `Cc1cc(C[C@H](NC(=O)c2c(Cl)cccc2Cl)C(=O)O)ccc1-c1c(C)n(C)c(=O)n(C)c1=O` ?
Found: FALSE

Lookup: Criterion: Ratio IC50 strictly below 0.3. Is it met by `COCCC1(C(=O)N[C@@H](Cc2ccc(-c3cn(C)c(=O)n(C)c3=O)c(C)c2)C(=O)O)CCCC1` ?
Found: FALSE

Lookup: Criterion: Ratio IC50 strictly below 0.3. Is it met by `CCn1c(C)c(-c2ccc(C[C@H](NC(=O)c3c(Cl)cccc3Cl)C(=O)O)cc2)c(=O)n(CC)c1=O` ?
Found: FALSE

Lookup: Criterion: Ratio IC50 strictly below 0.3. Is it met by `Cc1c(-c2ccc(C[C@H](NC(=O)c3c(Cl)cccc3Cl)C(=O)O)cc2)c(=O)n(C)c(=O)n1C` ?
Found: FALSE

Lookup: Criterion: Ratio IC50 strictly below 0.3. Is it met by `Cc1cc(C[C@H](NC(=O)c2c(C)cccc2Cl)C(=O)O)ccc1-c1cn(C)c(=O)n(C)c1=O` ?
Found: FALSE

Lookup: Criterion: Ratio IC50 strictly below 0.3. Is it met by `Cc1cc(C[C@H](NC(=O)c2c(C)cccc2Cl)C(=O)O)ccc1-c1c(C)n(C)c(=O)n(C)c1=O` ?
Found: TRUE

Lookup: Criterion: Ratio IC50 strictly below 0.3. Is it met by `Cc1c(-c2ccc(C[C@H](NC(=O)c3c(Cl)cccc3C(C)C)C(=O)O)cc2)c(=O)n(C)c(=O)n1C` ?
Found: TRUE

Lookup: Criterion: Ratio IC50 strictly below 0.3. Is it met by `COCCC1(C(=O)N[C@@H](Cc2ccc(-c3c(C)n(C)c(=O)n(C)c3=O)cc2)C(=O)O)CCCC1` ?
Found: FALSE

Lookup: Criterion: Ratio IC50 strictly below 0.3. Is it met by `CCn1c(C)c(-c2ccc(C[C@H](NC(=O)c3c(C)cccc3Cl)C(=O)O)cc2)c(=O)n(CC)c1=O` ?
Found: FALSE

Lookup: Criterion: Ratio IC50 strictly below 0.3. Is it met by `Cc1cccc(Cl)c1C(=O)N[C@@H](Cc1ccc(-c2c(C(F)(F)F)n(C)c(=O)n(C)c2=O)cc1)C(=O)O` ?
Found: TRUE

Lookup: Criterion: Ratio IC50 strictly below 0.3. Is it met by `CCn1c(C)c(-c2ccc(C[C@H](NC(=O)C3(CCOC)CCCC3)C(=O)O)cc2)c(=O)n(CC)c1=O` ?
Found: TRUE

Lookup: Criterion: Ratio IC50 strictly below 0.3. Is it met by `Cc1c(-c2ccc(C[C@H](NC(=O)c3c(C(C)C)cccc3C(C)C)C(=O)O)cc2)c(=O)n(C)c(=O)n1C` ?
Found: TRUE

Lookup: Criterion: Ratio IC50 strictly below 0.3. Is it met by `Cn1c(C(F)(F)F)c(-c2ccc(C[C@H](NC(=O)c3c(Cl)cccc3Cl)C(=O)O)cc2)c(=O)n(C)c1=O` ?
Found: FALSE

Lookup: Criterion: Ratio IC50 strictly below 0.3. Is it met by `Cc1cccc(Cl)c1C(=O)N[C@@H](Cc1ccc(-c2c(C)n(C)c(=O)n(C)c2=O)cc1)C(=O)O` ?
Found: FALSE

Lookup: Criterion: Ratio IC50 strictly below 0.3. Is it met by `Cc1cc(C[C@H](NC(=O)c2c(C)cccc2Br)C(=O)O)ccc1-c1cn(C)c(=O)n(C)c1=O` ?
Found: FALSE

Lookup: Criterion: Ratio IC50 strictly below 0.3. Is it met by `COc1cccc(Br)c1C(=O)N[C@@H](Cc1ccc(-c2cn(C)c(=O)n(C)c2=O)c(C)c1)C(=O)O` ?
Found: FALSE

Lookup: Criterion: Ratio IC50 strictly below 0.3. Is it met by `Cc1c(-c2ccc(C[C@H](NC(=O)c3c(F)cccc3F)C(=O)O)cc2)c(=O)n(C)c(=O)n1C` ?
Found: FALSE

Lookup: Criterion: Ratio IC50 strictly below 0.3. Is it met by `CCc1cccc(Cl)c1C(=O)N[C@@H](Cc1ccc(-c2c(C)n(C)c(=O)n(C)c2=O)cc1)C(=O)O` ?
Found: FALSE

###

Assay: Mean residence time in mouse at 10 mg/kg, iv
Format: ADME, organism-based
Set-up: dose 10 mg/kg, route intravenous
Settings: in vivo
Endpoint name: MRT
Quick note: number first, unit second.

Lookup: Sample `Cc1c(-c2ccc(C[C@H](NC(=O)c3c(F)cccc3F)C(=O)O)cc2)c(=O)n(C)c(=O)n1C` — what was its MRT?
Found: 15.6 min

###

Target: Integrin alpha-4/beta-1 (Homo sapiens, UniProt P05556+P13612)
Experiment: Inhibition of human VCAM1 binding to integrin alpha4beta1 receptor in human Ramos cells labeled with Calcein AM
The label 1 is reserved for IC50 strictly under 60 nM; 0 covers values equal to or above it.

Lookup: Criterion: IC50 strictly below 60 nM. Is it met by `Cc1c(-c2ccc(C[C@H](NC(=O)c3c(F)cccc3F)C(=O)O)cc2)c(=O)n(C)c(=O)n1C` ?
Found: 1

Lookup: Criterion: IC50 strictly below 60 nM. Is it met by `Cc1cccc(Cl)c1C(=O)N[C@@H](Cc1ccc(-c2c(C)n(C)c(=O)n(C)c2=O)cc1)C(=O)O` ?
Found: 1

Lookup: Criterion: IC50 strictly below 60 nM. Is it met by `COc1cccc(Br)c1C(=O)N[C@@H](Cc1ccc(-c2cn(C)c(=O)n(C)c2=O)c(C)c1)C(=O)O` ?
Found: 0

Lookup: Criterion: IC50 strictly below 60 nM. Is it met by `CCn1c(C)c(-c2ccc(C[C@H](NC(=O)c3c(Cl)cccc3Cl)C(=O)O)cc2)c(=O)n(CC)c1=O` ?
Found: 0

Lookup: Criterion: IC50 strictly below 60 nM. Is it met by `Cn1c(C(F)(F)F)c(-c2ccc(C[C@H](NC(=O)c3c(Cl)cccc3Cl)C(=O)O)cc2)c(=O)n(C)c1=O` ?
Found: 0

Lookup: Criterion: IC50 strictly below 60 nM. Is it met by `CCn1c(C)c(-c2ccc(C[C@H](NC(=O)c3c(C)cccc3Cl)C(=O)O)cc2)c(=O)n(CC)c1=O` ?
Found: 0

Lookup: Criterion: IC50 strictly below 60 nM. Is it met by `Cc1cccc(Cl)c1C(=O)N[C@@H](Cc1ccc(-c2c(C(F)(F)F)n(C)c(=O)n(C)c2=O)cc1)C(=O)O` ?
Found: 0

Lookup: Criterion: IC50 strictly below 60 nM. Is it met by `Cc1cc(C[C@H](NC(=O)c2c(Cl)cccc2Cl)C(=O)O)ccc1-c1c(C)n(C)c(=O)n(C)c1=O` ?
Found: 1
